All values here come from PubChem BioAssay.

Overview of recorded composite z-score for various compounds
Molecular target: Concanavalin-A (Canavalia ensiformis) (UniProt P02866)
Sequence (P02866 whole entry, looked up): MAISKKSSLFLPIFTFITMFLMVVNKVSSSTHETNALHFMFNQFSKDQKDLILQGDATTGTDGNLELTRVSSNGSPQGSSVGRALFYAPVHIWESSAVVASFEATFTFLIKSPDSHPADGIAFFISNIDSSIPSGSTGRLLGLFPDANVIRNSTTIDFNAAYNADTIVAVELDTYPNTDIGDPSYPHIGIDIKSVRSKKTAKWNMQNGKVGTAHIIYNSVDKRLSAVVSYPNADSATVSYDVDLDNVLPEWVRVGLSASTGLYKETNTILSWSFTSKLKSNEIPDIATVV
Assay: compounds binding concanavalin A lectin – biochemical, small-molecule microarray, Alexa647 label, 635 nm, artefact control for SMM control protein annotation, primary screen (AID 1127);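 note: z combines 667 nm emission intensity with signal-to-noise across three replicate slides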
Conditions: ConA-A647 binding fluorescence, higher = more signal
I only need the number, thanks.

Some entries whose results are on file:
# COMPOUND, composite z-score
data = [
    ("C=CC[C@H](OC(=O)Nc1ccc(SC)cc1)c1ccc(O)c2ccccc12", 1.16),
    ("O=C1C2C=CC(C(O)C3CC=CCC3)N(Nc3ccccc3)C2C(=O)N1c1ccccc1 (stereo not drawn)", 0.567),
    ("CC(=O)NCCCC[C@@H]1NC(=O)[C@@H]2C[C@H](C(=O)NCCCCCN)[C@H](c3cccc(OCCO)c3)N2C1=O", 1.11),
    ("CN(C)C(=O)[C@@]1(Cc2ccccc2CN=[N+]=[N-])N=C(c2ccc(OCCCO)cc2)O[C@H]1c1ccccc1N=[N+]=[N-]", 1.1),
    ("CCCNC(=O)[C@@H]1c2ccccc2C(=O)N(Cc2ccc(OC(F)(F)F)cc2)[C@H]1c1ccc(CO)cc1", 0.0505),
    ("CCCCC(=C=CC[C@H](O)c1ccc(OCCO)cc1)CCO", -0.727),
    ("CCCCCN1CC=CC23O[C@@H]4/C=C\\CCCOC(=O)C4[C@H]2C(=O)N(C(C)CO)[C@@H]3C1=O (stereo partly drawn)", -0.734),
]

Let us move to another entry and its composite z-score.
I'd like to know its composite z-score. The compound in question is COc1ccc([Si](C)(C)[C@@H]2[C@@H](CCO)O[C@]3(C(=O)N(Cc4cccc(NC(=O)[C@H](C)O)c4)c4ccccc43)[C@H]2C)cc1
1.01
